Test system: MOLM-13 cells
measurement_description: Cell viability assay (CELLTITER-GLO), MOLM-13 cells
Format: cell-based
condition_parameters: Homo sapiens, MOLM-13, 72 h; Table 2; compound at 10 μM, 3 days; read-out: Effect on MOLM-13 cell viability (% DMSO)
parameter_measured: viability at 10 µM

// below: answered molecules
molecule	viability at 10 µM
C=C(Cl)C(=O)N1CCN(c2ncnc3c(F)c(-c4c(F)cccc4OCCCCCCCN4CCC(c5cc6c(cc5F)C(=O)N(C5CCC(=O)NC5=O)C6)CC4)c(Cl)cc23)CC1 (centres unmarked)	< 10%
C=C(Cl)C(=O)N1CCN(c2ncnc3c(F)c(-c4c(F)cccc4OCCc4ccc(CCN5CCC(c6cc(F)cc7c6CN(C6CCC(=O)NC6=O)C7=O)CC5)cc4)c(Cl)cc23)CC1 (centres unmarked)	< 10%
CCC(=O)N1CCN(c2ncnc3c(F)c(-c4c(F)cccc4OCCCCCCCCNc4cccc5c4C(=O)N(C4CCC(=O)NC4=O)C5=O)c(Cl)cc23)CC1 (centres unmarked)	25 to 50%
CCC(=O)N1CC(N2Cc3ccc(-c4cc(O)cc5ccccc45)cc3N(CCCCCCCN3CCC(c4cc(F)cc5c4CN(C4CCC(=O)NC4=O)C5=O)CC3)C2=O)C1 (centres unmarked)	< 10%

Field: next molecule
Record CCC(=O)N1CCN(c2nc(=O)n(-c3ccccc3C(C)C)c3nc(-c4c(F)cccc4OCCCCCCCN4CCC(c5cc(F)cc6c5CN(C5CCC(=O)NC5=O)C6=O)CC4)c(F)cc23)[C@@H](C)C1 (some centres unmarked) . Reported viability at 10 µM: 10 to 25%

Origin of values: patent US12630547B2
